# Tested on: U251 CNS
# test summary: NCI tumour cell line growth inhibition, 48 h
endpoint name: TGI

CCOC(=O)N1CCN(C(=O)c2ccc(C(F)(F)F)nc2Nc2cc(Cl)ccc2C)CC1: > 100 µM
COc1cccc(CCn2c(N)c(-c3ccccc3)c3ccc([N+](=O)[O-])cc3c2=O)c1: 36.5 µM
O=c1c(-c2ccccc2)c(SCCCN2CCN(c3cccc(Cl)c3)CC2)n(-c2ccccc2)c(=S)n1-c1ccccc1: > 100 µM
OCCCCC#Cc1ccccc1C#Cc1cccc(O)c1: 31.3 µM
O=C(CN(C1CCCCC1)C1CCCCC1)Nc1ccc(S(=O)(=O)c2ccc(NC(=O)CN(C3CCCCC3)C3CCCCC3)cc2)cc1: 0.742 µM
O=C1/C(=C\c2ccc([N+](=O)[O-])o2)SC2N=C(COc3ccc(Cl)cc3)NN12 (stereo unspecified): 34.7 µM
CN=NN(C)C(=O)NC: > 100 µM
CN1CCOC1(C)CO (stereo unspecified): > 100 µM

TGI value, target or system U251 CNS, for CCN1C(=O)N(CC)C2C1NC(=S)N2/N=C/C=C/c1cccs1 (stereo unspecified) : > 100 µM

TGI value, target or system U251 CNS, for "COc1ccccc1/C=C/c1cnccn1" : > 10 µM

TGI value, target or system U251 CNS, for "Cc1c[n+](Cc2ccc3ccccc3c2)cn1Cc1ccc2ccccc2c1" : 3.07 µM

TGI value, target or system U251 CNS, for "COc1cc2c(cc1OCc1ccccc1)CNCC2" : > 100 µM

TGI value, target or system U251 CNS, for "O=C(N/N=C\c1cc(Br)ccc1O)c1ccncc1" : 68.8 µM

TGI value, target or system U251 CNS, for "COc1ccc(-c2cc(-c3cccn3C)c(C#N)c(N)n2)cc1OC" : > 100 µM

TGI value, target or system U251 CNS, for "CCN(CC)c1ccc2cc(-c3nnc(-c4ccccc4)o3)c(=O)oc2c1" : > 100 µM

TGI value, target or system U251 CNS, for COC(=O)C1OC(Oc2cc(O)c3c(=O)cc(-c4ccc(O)cc4)oc3c2)C(O)C(O)C1O (stereo unspecified) : > 100 µM

TGI value, target or system U251 CNS, for CC1(C#N)CC(C)(C)C(/C=C2/CC(C)(C)C(/C=C3/OC(=N)CC3(C)C)=N2)=N1 (stereo unspecified) : > 100 µM

TGI value, target or system U251 CNS, for "O=C(NCCCNC(=O)c1ccc2c(O)c(O)ccc2c1)c1ccc2c(O)c(O)ccc2c1" : 64.4 µM

TGI value, target or system U251 CNS, for "Cc1cc(C)cc(C(=N)c2ccccc2Cc2cccc3ccccc23)c1" : > 100 µM

TGI value, target or system U251 CNS, for "O=c1[nH]c2cc(Cl)ccc2n1C1CCN(CCCC(c2ccc(F)cc2)c2ccc(F)cc2)CC1" : 2.87 µM

Reference source for all entries: PubChem BioAssay (NCI)
